As shown below, each of these compounds has a reported MIC value.
# System: Escherichia coli
# Experiment notes: Antibacterial activity against Escherichia coli ATCC 25922 measured after 18 hrs
# Format: functional

Answered cases to consult:
Compound	Result type	Result
OC1(c2ccc(-c3ccccc3)cc2)C[N+](c2ccc3c(c2)OCO3)=C2CCCCCN21.[Br-] (stereo not given)	MIC	> 32 µg/mL
Cc1ccc(-[n+]2cc(-c3ccc(-c4ccccc4)cc3)n3c2CCCCC3)cc1.[Br-]	MIC	> 32 µg/mL
CCOc1ccc([N+]2=C3CCCCCN3C(O)(c3ccc(-c4ccccc4)cc3)C2)cc1.[Br-] (stereo not given)	MIC	> 32 µg/mL

get_value(item= CCc1ccc([N+]2=C3CCCCCN3C(O)(c3ccc(-c4ccccc4)cc3)C2)cc1.[Br-] (stereo not given) , readout=MIC) returns > 32 µg/mL

get_value(item= Cc1ccc([N+]2=C3CCCCCN3C(O)(c3ccc(-c4ccccc4)cc3)C2)cc1.[Br-] (stereo not given) , readout=MIC) returns > 32 µg/mL

###

# Experiment notes: Cytotoxicity against HEK293 cells measured after 20 hrs by resazurin dye based fluorescence assay
# Type: cell-based
# Experimental parameters: human
As shown below, each of these compounds has a reported CC50 at 20 h value.
Give just the number in µg/mL; leave the unit off.

Compound	CC50 at 20 h / µg/mL
OC1(c2ccc(-c3ccccc3)cc2)C[N+](c2ccc(Br)cc2)=C2CCCCCN21.[Br-] (stereo not given)	6.1
Cc1ccc(-[n+]2cc(-c3ccc(-c4ccccc4)cc3)n3c2CCCCC3)cc1.[Br-]	2.1
OC1(c2ccc(-c3ccccc3)cc2)C[N+](c2ccccc2)=C2CCCCCN21.[Br-] (stereo not given)	2.3
CC/C(=C(\c1ccccc1)c1ccc(OCCN(C)C)cc1)c1ccccc1 [TAMOXIFEN]	9

Pending compound:
get_value(item= CCOc1ccc([N+]2=C3CCCCCN3C(O)(c3ccc(-c4ccccc4)cc3)C2)cc1.[Br-] (stereo not given) , readout=CC50 at 20 h) returns 2.4
